# Test system: GB4
# Assay notes: qHTS profiling for inhibitors of Plasmodium falciparum proliferation (AID 504749); further: nearly all actives have a fitted effect of over 60% in size
# Measurement conditions: P. falciparum in erythrocytes, SYBR Green DNA, 72 h; series mostly up to 28.7 µM
Inconclusive results are not listed. The source made the active and inactive calls. The call rests on the fitted dose curve; in most records, active means well fitted inhibition curve with a large enough effect; inconclusive means small, poorly fitted or top-dose-only effect; inactive means flat fitted curve, though single readings scatter.
Pick from 1 (yes) = active, 0 (no) = inactive when you respond.

Consider the worked cases shown below.
In [3]: df
Out[3]:
                                   compound    class
0              CC(=O)Nc1ncc([N+](=O)[O-])s1   0 (no)
1  Cc1cc2c(OCC(CNC(C)(C)C)OC(=O)c3ccccc3)cccc2[nH]1 (stereo not drawn)  1 (yes)

Status in this test for OC(C#CCN1CCCC1)(c1ccccc1)c1ccccc1 ?
1 (yes)

Further, for NCCNC(=O)c1ccc(Cl)cn1 ?
0 (no)

Further, for COc1cc(C(=S)N2CCOCC2)ccc1O ?
0 (no)

Further, for CCN(CC)CCNc1ccc(CO)c2sc3ccccc3c(=O)c12 ?
1 (yes)

Further, for CC(=O)NC(=O)c1ccccc1O ?
0 (no)

Further, for COc1cc(C)nc(-n2nc(C)cc2OC)n1 ?
0 (no)

Further, for CCCCCN=C(N)N/N=C/c1c[nH]c2ccc(OC)cc12 ?
1 (yes)

Further, for CCc1ccc(C(=O)C(C)CN2CCCCC2)cc1 (stereo not drawn) ?
0 (no)

Further, for CCc1oc2ccccc2c1C(=O)c1cc(I)c(O)c(I)c1 ?
0 (no)

Further, for N=C(N)N1CCc2ccccc2C1 ?
0 (no)

Further, for C#C[C@]1(OC(C)=O)CC[C@H]2[C@@H]3CCC4=C/C(=N/O)CC[C@@H]4[C@H]3CC[C@@]21CC ?
0 (no)

----------
# Assay notes: qHTS of pediatric cancer cell lines to identify multiple opportunities for drug repurposing: Primary screen for BT-37 cells (AID 1347094)
# Measurement conditions: BT-37 viability, CellTiter-Glo luminescence, 48 h; series mostly up to 57.3 µM
Inconclusive results are not listed. The source made the active and inactive calls. Calls follow the shape of the dose curve; as a rule, active = well fitted cell-killing curve with a large enough effect; inconclusive = small, poorly fitted or top-dose-only effect; inactive = flat fitted curve, though single readings scatter.
Pick from true (1) for active, false (0) for inactive when you respond.

In [3]: df
Out[3]:
                                molecule     class
0  CCCCCN=C(N)N/N=C/c1c[nH]c2ccc(OC)cc12  true (1)

Status in this test for CC(=O)NCCCCCC(=O)O ?
false (0)

Further, for CC(C)[N+](C)(C)CC(O)COc1cccc2ccccc12 (stereo not drawn) ?
false (0)

----------
# Assay notes: Drug repurposing screens with cells derived from glioblastoma tumor samples (AID 1345199); further: on the % scale 0 is the no-effect control and ±100 the full control effect; nearly all actives have a fitted effect of over 40% in size
# Measurement conditions: GBM patient neurospheres viability, ATP luminescence, 48 h; at 45.9 µM (top of the series); tumour line B
Records with an inconclusive call do not appear.
Listed below: activity, negative = cell killing values for each entry.
Please state the figure in %; there is no need to write the unit.

>>> print(df.to_string())
                            compound  endpoint_unit  recorded_measurement
0    CCCCNC(=O)NS(=O)(=O)c1ccc(N)cc1              %                 -8.59
1                 CC(=O)Oc1ccc(C)cc1              %                 -11.7
2    COc1ccc(CN(CCN(C)C)c2ncccn2)cc1              %                 -6.69
3  Cc1cc(CC(=O)O)c(C)n1-c1ccc(Cl)cc1              %                 -14.5
4                  CCCCN=C(N)N=C(N)N              %                 -13.5
5   Cc1cccc(C)c1NC(=O)c1ccccc1C(=O)O              %                 -1.45

Query: activity, negative = cell killing; subject: O=C(Nc1cccc(C2=NCCN2)c1)Nc1cccc(C2=NCCN2)c1
7.96

Further, for Oc1ccccc1C=NCc1ccccc1 ?
-13.2

Further, for CCNC(=O)NCc1cccc(Cl)c1 ?
-11.2

Further, for Cc1ncc(CO)c(C=O)c1O ?
6.81

Further, for O=C(O)P(=O)(O)O ?
-0.165

Further, for COc1ccc(CCN(C)CCCN2CCc3cc(OC)c(OC)cc3CC2=O)cc1OC ?
-2.1
